# Experimental System: Human GLP-1 receptor (Homo sapiens)
# Construct: The full-length cDNA was cloned in pcDNA3.1(+); expressed in transfected cells
# Sequence (P43220 24-463): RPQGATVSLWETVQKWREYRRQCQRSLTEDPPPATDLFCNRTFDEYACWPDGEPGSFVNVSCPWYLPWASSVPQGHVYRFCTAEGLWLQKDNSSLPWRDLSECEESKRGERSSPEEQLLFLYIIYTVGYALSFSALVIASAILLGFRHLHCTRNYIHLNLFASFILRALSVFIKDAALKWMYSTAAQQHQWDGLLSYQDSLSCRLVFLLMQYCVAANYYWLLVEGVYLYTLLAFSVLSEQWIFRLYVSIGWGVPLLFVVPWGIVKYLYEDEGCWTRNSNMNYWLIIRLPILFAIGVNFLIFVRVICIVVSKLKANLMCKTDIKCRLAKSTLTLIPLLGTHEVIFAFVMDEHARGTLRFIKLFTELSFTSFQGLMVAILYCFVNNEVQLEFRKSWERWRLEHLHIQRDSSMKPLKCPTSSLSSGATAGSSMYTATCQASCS
# Test Details: In vitro Human GLP-1 R agonist activity (cyclic AMP determination) in CHO/human GLP1R cells
# Type: cell-based
# Assay Context: 1 nM test compound
Below is a list of entries, each paired with its recorded Human GLP-1 R activity (cAMP release), % activity with respect to control value.
Property Label: Human GLP-1 R activity (cAMP release), % activity with respect to control (%)

Molecule: CCc1cc(OC)ccc1-c1ccc(CC(NC(=O)[C@H](CC(=O)O)NC(=O)[C@H](CO)NC(=O)[C@@H](NC(=O)C(C)(Cc2ccccc2F)NC(=O)[C@@H](NC(=O)CNC(=O)C(CCC#N)NC(=O)C(C)(C)NC(=O)[C@H](Cc2c[nH]cn2)NC(C)=O)[C@@H](C)O)[C@@H](C)O)C(=O)NC(CCCc2ccccc2)C(N)=O)cc1 (single isomer, unassigned)
Unit Descriptor: %
Readout Number: 96
//
Molecule: CCc1cc(OC)ccc1-c1ccc(CC(NC(=O)[C@H](CC(=O)O)NC(=O)[C@H](CO)NC(=O)[C@@H](NC(=O)[C@H](Cc2ccccc2)NC(=O)[C@@H](NC(=O)CNC(=O)C(CCC#N)NC(=O)C(C)(C)NC(=O)[C@@H](N)Cc2c[nH]cn2)[C@@H](C)O)[C@@H](C)O)C(=O)NC(CCCc2ccc(F)cc2C(F)(F)F)C(N)=O)cc1 (single isomer, unassigned)
Unit Descriptor: %
Readout Number: 66
//
Molecule: CCc1cc(OC)ccc1-c1ccc(CC(NC(=O)[C@H](CC(=O)O)NC(=O)[C@H](CO)NC(=O)[C@@H](NC(=O)[C@H](Cc2ccccc2)NC(=O)[C@@H](NC(=O)CNC(=O)C(CCC#N)NC(=O)C(C)(C)NC(=O)[C@@H](N)Cc2c[nH]cn2)[C@@H](C)O)[C@@H](C)O)C(=O)NC(CCCc2ccccc2C(F)(F)F)C(N)=O)cc1 (single isomer, unassigned)
Unit Descriptor: %
Readout Number: 62
